Where these numbers come from: paper PMC10397247

Study system: T1, 4H87-AA
T1 chain: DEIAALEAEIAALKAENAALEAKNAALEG
Assay procedure: two-hybrid library CCmax;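 further: natural log of median RNA to DNA barcode read ratio; higher means stronger binding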
Test conditions: mean of both orientations
Measured interaction score values are reported for all entries that follow.
Number, no unit, nothing else.

Would you please look over these solved cases?
binder="DEIAALEAKNAALEAEIAALEAKIAALKG [4H390-AA]" outcome_measure="interaction score" measured_value=-1.41
binder="DKIAALKAKNAALEAKIAALKAEIAALEG [4H2985-AA]" outcome_measure="interaction score" measured_value=-1.48
binder="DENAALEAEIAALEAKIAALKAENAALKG [4H1068-AA]" outcome_measure="interaction score" measured_value=-0.863
binder="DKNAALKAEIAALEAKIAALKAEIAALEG [4H3625-AA]" outcome_measure="interaction score" measured_value=-0.904
binder="DEIAALEAKNAALKAKNAALKAKIAALKG [4H510-AA]" outcome_measure="interaction score" measured_value=-1.29

Documented interaction score of DEIAALKAKIAALEAEIAALEAKNAALEG [4H775-AA] : -1.7

Summary for this binder, DKIAALKAKIAALEAKNAALKAEIAALEG [4H2873-AA] : interaction score is 0.464
